Provenance of the data: patent US8134015B2

- TARGET_UNDER_TEST: UniProtKB Q9JJ09
- ASSAY_SUMMARY: Sodium-dependent phosphate uptake of Xenopus oocytes which expressed NaPi-2b (32P)
- EXPERIMENTAL_CONTEXT: Xenopus oocytes expressing rat NaPi-2b, 32P radioactive phosphorus; read-out: IC50 (phosphate uptake inhibitory activity)
pIC50: −log10 of the molar value.
PARAMETER_MEASURED: pIC50

{"SUBSTANCE_SMILES": "O=C(Nc1ccc(Br)cc1C(=O)N/N=C/c1ccc(F)cc1)c1ccc(CN2CCC(CO)CC2)cc1", "TARGET_UNDER_TEST": "UniProtKB Q9JJ09", "pIC50": 5.23}

[I] COc1ccc(C(=O)Nc2ccccc2C(=O)N/N=C/c2cc(C(F)(F)F)ccc2F)cc1OC
[II] Cc1ccc(/C=N/NC(=O)c2cc(Br)ccc2NC(=O)c2cccc(CSc3ccncc3)c2)cc1
q: Could you check which of I and II has a smaller value for pIC50? Kindly give the label for the entry you pick.
a: I

###

- TARGET_UNDER_TEST: rat NaPi-2b (Rattus norvegicus, UniProt Q9JJ09)
- ASSAY_SUMMARY: Sodium-dependent phosphate uptake of Xenopus oocytes which expressed NaPi-2b (32P)
- EXPERIMENTAL_CONTEXT: Xenopus oocytes expressing rat NaPi-2b, 32P radioactive phosphorus; read-out: IC50 (phosphate uptake inhibitory activity)
PARAMETER_MEASURED: IC50 (µM)

Recorded results for 2 compounds are shown here.
{"SUBSTANCE_SMILES": "COc1ccc(C(=O)Nc2ccccc2C(=O)N/N=C/c2ccco2)cc1OC", "RESULT": 21.5}
{"SUBSTANCE_SMILES": "O=C(Nc1ccc(Cl)cc1C(=O)N/N=C/c1ccc(F)cc1)c1cccc(CSCc2ccco2)c1", "RESULT": 25.9}

[1] COc1ccc(C(=O)Nc2ccc(Cl)cc2C(=O)N/N=C/c2ccc(Cl)c(C(F)(F)F)c2)cc1OC
[2] O=C(Nc1ccc(Br)cc1C(=O)N/N=C/c1cccc(F)c1)c1ccc(CN2CCC(O)CC2)cc1
q: Exercise: compare 1 and 2 ; which one has the greater IC50? Label of pick, please.
a: 2

###

- TARGET_UNDER_TEST: rat NaPi-2b (Rattus norvegicus)
- Construct: expressed in transfected cells; host or cells: Xenopus oocytes injected with cRNA
- Sequence (Q9JJ09 1-695): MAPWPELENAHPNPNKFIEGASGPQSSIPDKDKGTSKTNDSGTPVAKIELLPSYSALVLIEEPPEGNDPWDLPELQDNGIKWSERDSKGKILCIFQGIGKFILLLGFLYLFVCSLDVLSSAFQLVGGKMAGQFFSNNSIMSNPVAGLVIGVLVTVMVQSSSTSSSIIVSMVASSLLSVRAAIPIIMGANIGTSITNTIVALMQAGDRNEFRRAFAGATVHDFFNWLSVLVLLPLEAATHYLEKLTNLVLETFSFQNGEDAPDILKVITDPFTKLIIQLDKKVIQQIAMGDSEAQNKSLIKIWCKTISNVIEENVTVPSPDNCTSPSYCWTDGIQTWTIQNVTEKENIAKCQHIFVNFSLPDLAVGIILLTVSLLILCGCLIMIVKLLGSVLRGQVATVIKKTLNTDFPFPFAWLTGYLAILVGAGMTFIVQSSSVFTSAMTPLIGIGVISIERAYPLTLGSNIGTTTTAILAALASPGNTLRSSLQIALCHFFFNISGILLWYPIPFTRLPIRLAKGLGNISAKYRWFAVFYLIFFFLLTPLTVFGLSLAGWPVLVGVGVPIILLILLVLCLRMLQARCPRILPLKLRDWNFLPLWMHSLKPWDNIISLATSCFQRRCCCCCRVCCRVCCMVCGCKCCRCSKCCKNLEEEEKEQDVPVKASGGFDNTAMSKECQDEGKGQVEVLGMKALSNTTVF
- ASSAY_SUMMARY: Sodium-dependent phosphate uptake of Xenopus oocytes which expressed NaPi-2b (32P)
- Type: cell-based
- EXPERIMENTAL_CONTEXT: phosphate uptake, oocytes expressing rat NaPi-2b; 300 μM, determined from inhibition curve
PARAMETER_MEASURED: inhibition at 300 µM (%)

Below, 2 compounds whose answers are already recorded.
{"COMPOUND": "COc1ccc(/C=N/NC(=O)c2scc(C)c2NC(=O)c2cccc(CN3CCC(O)CC3)c2)cc1 [Compound 543]", "TARGET_UNDER_TEST": "rat NaPi-2b (Rattus norvegicus)", "READOUT_UNITS": "%", "inhibition at 300 µM": 30.2}
{"COMPOUND": "O=C(Nc1ccccc1C(=O)N/N=C/c1ccccc1F)c1ccccc1F [Compound 236]", "TARGET_UNDER_TEST": "rat NaPi-2b (Rattus norvegicus)", "READOUT_UNITS": "%", "inhibition at 300 µM": 49.4}

[1] CCN(CC)CC(O)COc1ccc(NC(=O)c2cccc(CN(CC(C)O)CC(C)O)c2)c(C(=O)N/N=C/c2ccc(C)c(C)c2)c1 (stereo not shown) [Compound 951]
[2] COc1ccc2cc(/C=N/NC(=O)c3ccccc3NC(=O)c3ccc(OC)c(OC)c3)ccc2c1 [Compound 232]
q: // which entry reports the smaller inhibition at 300 µM, 1 or 2 ? Please indicate the selected item by its label.
a: 2
(2: 44.9%, 1: 68.5%)
